# credit: ChEMBL document CHEMBL4823330

# protocol notes: Lipophilicity, logD of compound at pH 7.4
# Type: physicochemical
# study conditions: buffer
measurement kind: logD

>>> df
                         compound_structure  measurement_kind  result
0  CCC[C@H](c1nc2ccncc2c(=O)n1CC)N1CCN[C@H](C)C1              logD    0.49

----------
# assayed target: CYP2C19 (Homo sapiens)
# Sequence (P33261 whole entry): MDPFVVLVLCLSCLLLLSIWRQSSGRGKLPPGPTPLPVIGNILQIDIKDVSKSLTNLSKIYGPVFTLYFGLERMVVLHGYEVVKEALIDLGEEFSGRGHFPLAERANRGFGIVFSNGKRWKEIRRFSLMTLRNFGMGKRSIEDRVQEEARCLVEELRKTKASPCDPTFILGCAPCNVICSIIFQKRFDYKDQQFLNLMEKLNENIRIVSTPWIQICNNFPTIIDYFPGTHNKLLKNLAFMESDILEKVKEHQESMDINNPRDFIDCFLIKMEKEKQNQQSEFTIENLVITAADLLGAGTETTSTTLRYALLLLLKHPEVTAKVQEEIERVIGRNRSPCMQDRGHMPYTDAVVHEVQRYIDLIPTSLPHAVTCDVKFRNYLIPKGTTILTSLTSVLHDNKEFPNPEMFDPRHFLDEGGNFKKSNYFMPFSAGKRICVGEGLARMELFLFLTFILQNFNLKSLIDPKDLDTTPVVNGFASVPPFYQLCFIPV
# protocol notes: Inhibition of CYP2C19 (unknown origin) at 1 uM relative to control
# Assay type: ADME
measurement kind: inhibition at 1 µM

>>> df
                         compound_structure    measurement_kind  result
0  CCC[C@H](c1nc2ccncc2c(=O)n1CC)N1CCN[C@H](C)C1  inhibition at 1 µM   < 50%
